molecular target: T1, human tissue factor (human TF) on human bladder carcinoma cells J82 (human, UniProt P13726 33-295); assay: cell ELISA on fixed J82 cells;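 further: measures antigen binding in a cell ELISA on J82 cells grown one day in 96-well plates and fixed with 4% paraformaldehyde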
T1 construct: whole, on cells; Target of the cell ELISA; also called the antigen
QUANTITY_KIND: binding result

BINDER	QUANTITY_KIND	REPORTED_MEASUREMENT
humanized H chain version “i” combined with the humanized L chain version “b1” (antibody, V domains shown, expressed in COS-7; also called i-b1) VH: QVQLLESGAVLARPGTSVKISCKASGFNIKDYYMHWVKQRPGQGLEWIGGNDPANGHSMYDPKFQGRVTITADTSTSTVFMELSSLRSEDTAVYYCARDSGYAMDYWGQGTLVTVSS VL: DIQMTQSPSSLSASVGDRVTITCKASQDIKSFLSWFQQKPGKSPKTLIYYATSLADGVPSRFSGSGSGTDYTLTISSLQPEDFATYYCLQHGESPYTFGGGTKVEIK	binding result	binds
humanized H chain version “b3” combined with the humanized L chain version “b” (antibody, V domains shown, expressed in COS-7; also called b3-b) VH: QVQLLESGAVLARPGTSVKISCKASGFNIKDYYMHWVRQAPGQGLEWIGGNDPANGHSMYDPKFQGRVTITADTSTNTAYMELSSLRSEDTAIYYCARDSGYAMDYWGQGTLVTVSS VL: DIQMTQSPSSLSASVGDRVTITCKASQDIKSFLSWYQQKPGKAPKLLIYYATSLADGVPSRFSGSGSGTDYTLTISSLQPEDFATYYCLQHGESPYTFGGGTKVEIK	binding result	binds
humanized L chain version “b2” combined with a chimeric H chain (antibody, V domains shown, expressed in COS-7; also called ch-b2) VH: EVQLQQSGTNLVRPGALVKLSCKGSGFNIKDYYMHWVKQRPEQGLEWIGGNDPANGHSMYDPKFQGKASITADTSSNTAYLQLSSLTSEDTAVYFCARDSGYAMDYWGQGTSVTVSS VL: DIQMTQSPSSLSASVGDRVTITCKASQDIKSFLSWYQQKPEKAPKSLIYYATSLADGVPSRFSGSGSGTDYTLTISSLQPEDFATYYCLQHGESPYTFGGGTKVEIK	binding result	binds

Cited source for all entries: patent US20040180051A1
